biological target: Cyclin E/CDK2 (Homo sapiens); test: Cyclin E/CDK2 in vitro kinase assay (33P-ATP, SPA beads)
In this section, each of the compounds is paired with its reported pIC50.
Notebook: values listed as pIC50 are -log10 of the concentration (mol/L).

Here's what some known entries look like.
{"columns": ["Compound", "Target under test", "Assay endpoint", "Endpoint value"],
 "data": [
  ["Cc1cc(Nc2cc(N3CC(N)C3)nc3c(-c4cnn(C)c4)cnn23)sn1", "Cyclin E/CDK2 (Homo sapiens)", "pIC50", 5.17],
  ["Cc1cc(Nc2cc(C3CCCNC3)nc3c(-c4cncs4)cnn23)sn1 (centres unmarked)", "Cyclin E/CDK2 (Homo sapiens)", "pIC50", 5.48],
  ["Cc1cc(Nc2cc(C3CCCNC3)nc3c(-c4coc(C#N)c4)cnn23)sn1 (centres unmarked)", "Cyclin E/CDK2 (Homo sapiens)", "pIC50", 5.44]
]}

For Cc1cc(Nc2cc(C3CCCNC3)nc3c(Br)cnn23)sn1 (centres unmarked) , what is its reported pIC50?
7.12

For Cc1cc(Nc2cc(C3CCCNC3)nc3c(-c4coc(C=NO)c4)cnn23)sn1 (centres unmarked) , what is its reported pIC50?
7.30
